src = a melting point compilation (Tetko et al.; mined from patent text by program, amines drawn as free bases though some values may be those of a salt)

measure: melting point

compound: CSc1ncc2c(n1)C(C)CNN(C)C2=O (stereo unspecified)
melting point: 153 to 155 °C
//
compound: O[C@H](COc1cccc2[nH]ccc12)CN1CC=C(c2c[nH]c3cccc(F)c23)CC1
melting point: 90 to 95 °C

Which value of melting point has been reported for CC#CCCCn1ncc2c(N)c3c(nc21)CN(CCC)C3=O in the records?
168 to 170 °C

So what's the measured melting point for this one? CCN1C(=O)C(C)(C)C(=O)N(C)c2cc(OCCCn3cc(-c4ccc(OC)nc4)c(=O)c4ccccc43)ccc21
159 to 161 °C

Fill in: melting point of Cc1nc(N2CCC(c3ccc(F)cc3)CC2)c([N+](=O)[O-])c(=O)n1CCCCO is ___
154 to 156 °C
